Data origin: paper PMC11436758

study target: wild-type AcpS (Escherichia coli, UniProt P24224)
Sequence (P24224 whole entry): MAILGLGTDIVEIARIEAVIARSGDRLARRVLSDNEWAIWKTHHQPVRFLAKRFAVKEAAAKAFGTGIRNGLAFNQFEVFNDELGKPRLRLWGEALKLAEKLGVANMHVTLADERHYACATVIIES
quantity kind: IC50 (µM)

> print(dat)
                            chemical.smiles                              study.target  endpoint.value
1  CC(C)c1cc(Cl)ccc1-c1cc(-c2nnn[nH]2)c(-c2ccc(Cl)cc2C(C)C)s1  wild-type AcpS (Escherichia coli, UniProt P24224)             5.1

----------
System: S. aureus (MRSA)
test name: MIC, clinical and laboratory strains
Type: cell-based
conditions used: S. aureus (MRSA) 5702

chemical smiles	study target	MIC
CC(C)c1cc(Cl)ccc1-c1cc(-c2nnn[nH]2)c(-c2ccc(Cl)cc2C(C)C)s1	S. aureus (MRSA)	1 µg/mL
CC[C@H]1OC(=O)[C@H](C)[C@@H](O[C@H]2C[C@@](C)(OC)[C@@H](O)[C@H](C)O2)[C@H](C)[C@@H](O[C@@H]2O[C@H](C)C[C@H](N(C)C)[C@H]2O)[C@](C)(O)C[C@@H](C)C(=O)[C@H](C)[C@@H](O)[C@]1(C)O	S. aureus (MRSA)	> 16 µg/mL
CN[C@H](CC(C)C)C(=O)N[C@H]1C(=O)N[C@@H](CC(N)=O)C(=O)N[C@H]2C(=O)N[C@H]3C(=O)N[C@H](C(=O)N[C@H](C(=O)O)c4cc(O)cc(O)c4-c4cc3ccc4O)[C@H](O)c3ccc(c(Cl)c3)Oc3cc2cc(c3O[C@@H]2O[C@H](CO)[C@@H](O)[C@H](O)[C@H]2O[C@H]2C[C@](C)(N)[C@H](O)[C@H](C)O2)Oc2ccc(cc2Cl)[C@H]1O	S. aureus (MRSA)	0.5 µg/mL
C/C(=C\C(=O)OCCCCCCCCC(=O)O)C[C@@H]1OC[C@H](C[C@@H]2O[C@H]2[C@@H](C)[C@H](C)O)[C@@H](O)[C@H]1O	S. aureus (MRSA)	1 µg/mL

----------
System: S. aureus (MSSA)
test name: MIC, clinical and laboratory strains
Type: cell-based
conditions used: S. aureus (MSSA) 6170
quantity kind: MIC (µg/mL)

chemical smiles	study target	unit info	endpoint value
CC(C)c1cc(Cl)ccc1-c1cc(-c2nnn[nH]2)c(-c2ccc(Cl)cc2C(C)C)s1	S. aureus (MSSA)	µg/mL	1
CN[C@H](CC(C)C)C(=O)N[C@H]1C(=O)N[C@@H](CC(N)=O)C(=O)N[C@H]2C(=O)N[C@H]3C(=O)N[C@H](C(=O)N[C@H](C(=O)O)c4cc(O)cc(O)c4-c4cc3ccc4O)[C@H](O)c3ccc(c(Cl)c3)Oc3cc2cc(c3O[C@@H]2O[C@H](CO)[C@@H](O)[C@H](O)[C@H]2O[C@H]2C[C@](C)(N)[C@H](O)[C@H](C)O2)Oc2ccc(cc2Cl)[C@H]1O	S. aureus (MSSA)	µg/mL	0.5
C/C(=C\C(=O)OCCCCCCCCC(=O)O)C[C@@H]1OC[C@H](C[C@@H]2O[C@H]2[C@@H](C)[C@H](C)O)[C@@H](O)[C@H]1O	S. aureus (MSSA)	µg/mL	2
CC[C@H]1OC(=O)[C@H](C)[C@@H](O[C@H]2C[C@@](C)(OC)[C@@H](O)[C@H](C)O2)[C@H](C)[C@@H](O[C@@H]2O[C@H](C)C[C@H](N(C)C)[C@H]2O)[C@](C)(O)C[C@@H](C)C(=O)[C@H](C)[C@@H](O)[C@]1(C)O	S. aureus (MSSA)	µg/mL	0.5

----------
test name: in vitro
Assay type: cell-based
conditions used: human
quantity kind: CC50 at 24 h (µg/mL)

> print(dat)
                                   molecule  endpoint.value
1  CC(C)c1cc(Cl)ccc1-c1cc(-c2nnn[nH]2)c(-c2ccc(Cl)cc2C(C)C)s1 [DNM0547]              41

----------
test name: Dermal pharmacokinetics, serum concentration after topical application
Format: in vivo, Sprague Dawley rats
conditions used: Sprague Dawley, rat, serum, topical, 2 %, 2% applied topically, 24 h
quantity kind: concentration at 24 h (ng/mL)

> print(dat)
                            chemical.smiles          quantity.kind  unit.info  endpoint.value
1  CC(C)c1cc(Cl)ccc1-c1cc(-c2nnn[nH]2)c(-c2ccc(Cl)cc2C(C)C)s1  concentration at 24 h      ng/mL              60

----------
test name: Dermal pharmacokinetics, serum concentration after topical application
Type: in vivo, Sprague Dawley rats
conditions used: Sprague Dawley, rat, serum, topical or ocular; 2% applied topically; read-out: time of maximum serum concentration after application
quantity kind: Tmax (h)

> print(dat)
                                   compound  quantity.kind  endpoint.value
1  CC(C)c1cc(Cl)ccc1-c1cc(-c2nnn[nH]2)c(-c2ccc(Cl)cc2C(C)C)s1 [DNM0547]           Tmax               7

----------
Entries annotated with measured MIC
System: S. aureus (VISA)
test name: MIC, clinical and laboratory strains
Assay type: cell-based
conditions used: S. aureus (VISA) 2015

compound	readout relation	MIC (µg/mL)
C/C(=C\C(=O)OCCCCCCCCC(=O)O)C[C@@H]1OC[C@H](C[C@@H]2O[C@H]2[C@@H](C)[C@H](C)O)[C@@H](O)[C@H]1O [mupirocin]	=	0.06
CC[C@H]1OC(=O)[C@H](C)[C@@H](O[C@H]2C[C@@](C)(OC)[C@@H](O)[C@H](C)O2)[C@H](C)[C@@H](O[C@@H]2O[C@H](C)C[C@H](N(C)C)[C@H]2O)[C@](C)(O)C[C@@H](C)C(=O)[C@H](C)[C@@H](O)[C@]1(C)O [erythromycin]	>	16
CN[C@H](CC(C)C)C(=O)N[C@H]1C(=O)N[C@@H](CC(N)=O)C(=O)N[C@H]2C(=O)N[C@H]3C(=O)N[C@H](C(=O)N[C@H](C(=O)O)c4cc(O)cc(O)c4-c4cc3ccc4O)[C@H](O)c3ccc(c(Cl)c3)Oc3cc2cc(c3O[C@@H]2O[C@H](CO)[C@@H](O)[C@H](O)[C@H]2O[C@H]2C[C@](C)(N)[C@H](O)[C@H](C)O2)Oc2ccc(cc2Cl)[C@H]1O [vancomycin]	=	4
CC(C)c1cc(Cl)ccc1-c1cc(-c2nnn[nH]2)c(-c2ccc(Cl)cc2C(C)C)s1 [DNM0547]	=	2

----------
Tested on: S. aureus (MRSA)
test name: MIC, clinical and laboratory strains
Type: cell-based
conditions used: S. aureus (MRSA) 6315
quantity kind: MIC (µg/mL)

chemical smiles	unit info	readout relation	endpoint value
CC(C)c1cc(Cl)ccc1-c1cc(-c2nnn[nH]2)c(-c2ccc(Cl)cc2C(C)C)s1	µg/mL	=	1
C/C(=C\C(=O)OCCCCCCCCC(=O)O)C[C@@H]1OC[C@H](C[C@@H]2O[C@H]2[C@@H](C)[C@H](C)O)[C@@H](O)[C@H]1O	µg/mL	=	1
CC[C@H]1OC(=O)[C@H](C)[C@@H](O[C@H]2C[C@@](C)(OC)[C@@H](O)[C@H](C)O2)[C@H](C)[C@@H](O[C@@H]2O[C@H](C)C[C@H](N(C)C)[C@H]2O)[C@](C)(O)C[C@@H](C)C(=O)[C@H](C)[C@@H](O)[C@]1(C)O	µg/mL	>	16
CN[C@H](CC(C)C)C(=O)N[C@H]1C(=O)N[C@@H](CC(N)=O)C(=O)N[C@H]2C(=O)N[C@H]3C(=O)N[C@H](C(=O)N[C@H](C(=O)O)c4cc(O)cc(O)c4-c4cc3ccc4O)[C@H](O)c3ccc(c(Cl)c3)Oc3cc2cc(c3O[C@@H]2O[C@H](CO)[C@@H](O)[C@H](O)[C@H]2O[C@H]2C[C@](C)(N)[C@H](O)[C@H](C)O2)Oc2ccc(cc2Cl)[C@H]1O	µg/mL	=	1

----------
System: S. aureus (VISA)
test name: MIC, clinical and laboratory strains
Assay type: cell-based
conditions used: S. aureus (VISA) 2016
Experimental: The medium employed for the assay was Mueller Hinton II Broth (MHB II; Becton-Dickinson, Sparks, MD, USA). Agar plates used for the organisms were trypticase soy agar plus 5% sheep blood (BD; Sparks, MD, USA). MIC assay plates were prepared using the CLSI broth microdilution procedure. […] The microplates were viewed from the bottom using a plate viewer and the MIC was read. The MIC was recorded as the lowest concentration of drug that inhibited visible growth of the organism.
quantity kind: MIC (µg/mL)

chemical smiles	quantity kind	unit info	readout relation	endpoint value
CN[C@H](CC(C)C)C(=O)N[C@H]1C(=O)N[C@@H](CC(N)=O)C(=O)N[C@H]2C(=O)N[C@H]3C(=O)N[C@H](C(=O)N[C@H](C(=O)O)c4cc(O)cc(O)c4-c4cc3ccc4O)[C@H](O)c3ccc(c(Cl)c3)Oc3cc2cc(c3O[C@@H]2O[C@H](CO)[C@@H](O)[C@H](O)[C@H]2O[C@H]2C[C@](C)(N)[C@H](O)[C@H](C)O2)Oc2ccc(cc2Cl)[C@H]1O	MIC	µg/mL	=	4
CC[C@H]1OC(=O)[C@H](C)[C@@H](O[C@H]2C[C@@](C)(OC)[C@@H](O)[C@H](C)O2)[C@H](C)[C@@H](O[C@@H]2O[C@H](C)C[C@H](N(C)C)[C@H]2O)[C@](C)(O)C[C@@H](C)C(=O)[C@H](C)[C@@H](O)[C@]1(C)O	MIC	µg/mL	>	16
C/C(=C\C(=O)OCCCCCCCCC(=O)O)C[C@@H]1OC[C@H](C[C@@H]2O[C@H]2[C@@H](C)[C@H](C)O)[C@@H](O)[C@H]1O	MIC	µg/mL	=	0.25
CC(C)c1cc(Cl)ccc1-c1cc(-c2nnn[nH]2)c(-c2ccc(Cl)cc2C(C)C)s1	MIC	µg/mL	=	2
